// reported melting point for each item listed

Solved entries (count: 5):
O=Cc1cccc2nc(-c3ccccc3)oc12: 107 °C
Cc1ccc(S(=O)(=O)OC[C@@H]2NC(=O)[C@@H]2N=[N+]=[N-])cc1 (relative stereo): 77 to 78 °C
CC(C)(C#N)Cc1ccc2cc(CC(C)(C)C#N)ccc2c1: 178 to 180 °C
CN(c1ccc(OCCCCBr)cc1)S(=O)(=O)c1ccc(C(F)(F)F)cc1: 91 to 92 °C
CC1(C(=O)c2c[nH]c3ncc(-c4ccc(N5CCCCC5)cc4)nc23)CCCCC1: 234 to 236 °C

q: So what does the record say about melting point for CC1CCCC(C)N1Cc1ccc(N)cc1 (configuration not stated) ?
a: 112 to 115 °C

q: CC1=C(C(=O)NN)C(c2ccccc2Cl)c2c[nH]nc2N1 (configuration not stated) , same question.
a: 220 °C

q: Thanks! And COc1ccc(S(=O)(=O)Nc2cccc(C)c2NC(=O)c2cccnc2)cc1 ?
a: 207 to 209 °C

q: How about this compound: Fc1cc(Cl)c(Br)c(Cl)c1
a: 83 °C

q: Param item: Cc1cc(N2N=CCNC2=O)cc(Cl)c1Cc1ccc(Cl)cc1
a: 209 to 210 °C

q: Now give it for C[C@@H](O)c1cc2ccoc2cn1 too.
a: 59.5 to 60.5 °C

q: Follow-up entry: Cc1nnc(COc2cccc3c2CN(C2CCC(=O)NC2=O)C3=O)o1 (configuration not stated)
a: 206 to 208 °C

q: What do you have for CC=C1CCC2C3CCC4CC(O)CCC4(C)C3C(N)CC12C (configuration not stated) ?
a: 118 to 125 °C

q: And what about the compound CC1Cc2cc3c(cc2C(c2ccc([N+](=O)[O-])cc2)=NN1c1n[nH]c(=O)s1)OCO3 (configuration not stated) ?
a: 288 °C

q: Item: O=c1c2ccc(O)cc2oc2oc3cc(O)ccc3c12
a: > 300 °C

q: And what about the compound CCN(CC)CCOC(=C1C2CC3C(C2)C13)c1ccccc1 ?
a: 120 to 123 °C

q: Now the same for CC(c1cn(C)c2ccccc12)N(O)C(N)=O (configuration not stated)
a: 149 to 150 °C

q: Thanks! And Cc1c(CCCCCCCC(=O)O)cccc1C(=O)c1ccc(Cl)cc1 ?
a: 70 °C

q: Lookup CC(C)c1cccc([N+](=O)[O-])c1C#N
a: 121 to 124 °C

q: Next: CCOC(=O)CC(NC(=O)c1ccc(Cl)cc1)C(=O)c1cccs1 (configuration not stated)
a: 112 to 113 °C

q: Field entry: CC(C)C1N2C=CC=CC2=CC1(C=C(Br)Br)c1ccc(F)cc1 (configuration not stated)
a: 134 to 135 °C

q: Please do the same for Nc1nc(-c2ccc(NC(=O)CN(Cc3ccccc3)C(=O)C3CCCCC3)cc2)cs1 as well.
a: 214 to 216 °C

q: What do you get for O=C(O)CCNC(=O)C(Cl)(Cl)Cl ?
a: 102 to 110 °C

q: Here is the next compound: Oc1ccc(CCCCn2cncn2)cc1
a: 135 to 136 °C

q: Now the same for C#Cc1c(-c2ccc(F)cc2)nn(-c2ccccc2)c1C(C)C
a: 117 to 118 °C

q: And for CC(C)(CO)NS(=O)(=O)c1cccc(NC(=O)c2cnn3c(C(F)(F)F)cc(-c4ccc(C(F)(F)F)c(OCC(F)(F)F)c4)nc23)c1 ?
a: 251 °C

q: Moving on to the next compound: CN1C(c2cccnc2)CC(=O)CC1c1cccnc1 (configuration not stated)
a: 103 to 106 °C

q: And what about the compound O=C1CCCc2c1c(-c1ccccc1)nn2-c1ccccc1 ?
a: 162 °C
